target: DLL3 on SHP-77 cells (human) (UniProt Q9NYJ7); assay: 177Lu-labelled peptide on SHP-77 cells, 1 h 37 C, gamma count of bound fraction
Sequence (Q9NYJ7 27-618 limits assumed): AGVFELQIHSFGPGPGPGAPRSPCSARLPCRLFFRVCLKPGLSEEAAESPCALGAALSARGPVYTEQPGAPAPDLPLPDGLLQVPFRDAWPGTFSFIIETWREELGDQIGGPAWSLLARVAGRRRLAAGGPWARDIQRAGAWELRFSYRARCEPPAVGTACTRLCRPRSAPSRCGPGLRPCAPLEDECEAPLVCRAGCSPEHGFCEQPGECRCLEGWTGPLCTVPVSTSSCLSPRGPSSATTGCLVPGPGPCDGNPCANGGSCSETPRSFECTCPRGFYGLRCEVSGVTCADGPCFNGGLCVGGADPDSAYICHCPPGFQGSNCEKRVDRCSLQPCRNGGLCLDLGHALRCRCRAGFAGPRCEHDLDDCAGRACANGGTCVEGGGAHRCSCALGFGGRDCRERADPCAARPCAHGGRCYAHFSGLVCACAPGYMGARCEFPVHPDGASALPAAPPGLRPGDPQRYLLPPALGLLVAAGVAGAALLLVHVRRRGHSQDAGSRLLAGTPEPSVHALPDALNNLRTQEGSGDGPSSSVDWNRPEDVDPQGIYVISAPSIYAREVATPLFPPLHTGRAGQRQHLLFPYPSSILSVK
Numbered stars: 1 amine (or outer) side, 2 acyl side, 3 side chain; on linkers, the order of the positions; unused ones are H or OH. Bridge positions count the residues as written; N and C are the ends. Square brackets hold non-standard residues; d marks the D form. * marks the point of attachment. Ala(piperidin-4-yl) = O=C([C@H](CC1CCN([*:3])CC1)N[*:1])[*:2]; DOTA = O=C(O)CN1CCN(CC(=O)O)CCN(CC(=O)*)CCN(CC(=O)O)CC1; 1Nal = N[C@@H](Cc1cccc2ccccc12)C(=O)O; 2Nal = N[C@@H](Cc1ccc2ccccc2c1)C(=O)O; Phe(2-Me) = Cc1ccccc1C[C@H](N)C(=O)O; tBuAla = CC(C)(C)C[C@H](N)C(=O)O; αMeD = C[C@](N)(CC(=O)O)C(=O)O; AllylGly = C=CC[C@H](N)C(=O)O; PAF(DOTA) = not defined here; αMeP = C[C@@]1(C(=O)O)CCCN1; NMeS = CN[C@@H](CO)C(=O)O; Ahx = NCCCCCC(=O)O
measured.property: % Binding (%)
Value expressed in %; do not type the unit.

Given the entry Ac-[dA][NMeS]D[AllylGly][1Nal][tBuAla][PAF(DOTA)][2Nal]N[AllylGly][αMeP]FD-NH2 (staple 4-10; reading uncertain; also: 177Lu chelated) [[177Lu]Lu-Cpd #195] , report its measured % Binding.
7

Given the entry Ac-[dA]SDC[1Nal][tBuAla]A[2Nal]DC[αMeP]FD[dK](DOTA)-NH2 (disulfide 4-10; also: 177Lu chelated) [[177Lu]Lu-Cpd #166] , report its measured % Binding.
7

Given the entry {DOTA}-[dA]SDC[1Nal][tBuAla]Q[2Nal]NC[αMeP][Phe(2-Me)]D-NH2 (disulfide 4-10; also: 177Lu chelated) [[177Lu]Lu-Cpd #154] , report its measured % Binding.
10

Given the entry Ac-[dA]S[αMeD]C[1Nal][tBuAla]Q[2Nal]NC[αMeP]FD[dK](DOTA)-NH2 (disulfide 4-10; also: 177Lu chelated) [[177Lu]Lu-Cpd #168] , report its measured % Binding.
8

Given the entry Ac-[Ala(piperidin-4-yl)][NMeS]DC[1Nal][tBuAla][PAF(DOTA)][2Nal]NC[αMeP]FD-NH2 (disulfide 4-10; reading uncertain; also: 177Lu chelated, printed as Ac-[3-(4-piperidinyl)-Ala]-(NMe-Ser)-D-C(3)-(1Nal)-(t-Bu-Ala)-[PAF(DOTA)]-(2Nal)-N-C(3)-(aMe-P)-F-D-CONH2; (3)=disulfide; 177Lu chelated) [[177Lu]Lu-Cpd #191] , report its measured % Binding.
10

Given the entry {DOTA}-[Ahx]SDC[1Nal][tBuAla][Ala(piperidin-4-yl)][2Nal]NC[αMeP]FD-NH2 (disulfide 4-10; also: 177Lu chelated) [[177Lu]Lu-Cpd #176] , report its measured % Binding.
6
